system: RAW-Dual; experiment: NF-kB SEAP reporter activity, fold change vs agonist alone; higher = enhanced NF-kB activity; settings: library stock concentration (final ~1000-fold dilution): 10 mM; cytotoxicity flag (confluency mask): not cytotoxic; agonist: MPLA (TLR4) […]
The full ranking holds about 2,900 compounds; the median of “NF-kB SEAP reporter activity, fold change vs agonist alone” is about 0.99, and the highest 2% start at about 2.6. This excerpt belongs to a sample that is enriched for the highest values.
MEASURED_ATTRIBUTE: NF-kB SEAP reporter activity
Give the figure only, with no unit attached.

COMPOUND: CN1CCN(Cc2ccc(-c3cnc4[nH]cc(-c5ccc6[nH]ccc6c5)c4c3)cc2)CC1
NF-kB SEAP reporter activity: 0.242
//
COMPOUND: CS(=O)c1ccc(-c2nc(-c3ccc(F)cc3)c(-c3ccncc3)[nH]2)cc1 (stereo not given)
NF-kB SEAP reporter activity: 1.61
//
COMPOUND: COc1cc(-c2cc(-c3ccc(Cl)cc3)nc(=O)[nH]2)ccc1O
NF-kB SEAP reporter activity: 1.15
//
COMPOUND: CN1C(CC(=O)c2ccccc2)CCCC1CC(O)c1ccccc1.Cl (stereo not given)
NF-kB SEAP reporter activity: 0.909
//
COMPOUND: Cl.Clc1cccc(-c2nnnn2Cc2cccnc2)c1Cl
NF-kB SEAP reporter activity: 1.06
//
COMPOUND: Cc1ccc(CNc2ncnc3ccc(-c4ccc(CO)o4)cc23)o1
NF-kB SEAP reporter activity: 1.24
//
COMPOUND: CCOC(=O)COc1ccc(/C=C2\SC(=S)NC2=O)cc1OC
NF-kB SEAP reporter activity: 1.1
//
COMPOUND: C=CC1(C)CC(OC(=O)CSCCN(CC)CC)C2(C)C(C)CCC3(CCC(=O)C32)C(C)C1O.O=C(O)/C=C/C(=O)O (stereo not given)
NF-kB SEAP reporter activity: 1.13

NF-kB SEAP reporter activity for `N#Cc1ccc2ncnc(NCCc3ccccc3)c2c1` ?
1.59

I am curious: what NF-kB SEAP reporter activity value has been reported for `CCn1cc(C(=O)O)c(=O)c2cc(F)c(N3CCN(C)CC3)cc21.CS(=O)(=O)O` ?
0.878

* * *

system: RAW-Dual; experiment: NF-kB SEAP reporter activity, fold change vs agonist alone; cytotoxicity flag (confluency mask): not cytotoxic; higher = enhanced NF-kB activity; details: agonist: Pam2CSK4 (TLR2/6) 0.1 ug/mL
Over roughly 2,900 compounds, “NF-kB SEAP reporter activity, fold change vs agonist alone” has its median near 0.99; the highest 2% begin near 2.6. Many of the other results were omitted from the sample, so the highest values are more common in it than they were.
MEASURED_ATTRIBUTE: NF-kB SEAP reporter activity

Below, each entry is followed by its recorded NF-kB SEAP reporter activity result.
COMPOUND: Cc1cc2c(C(=O)NCC(C)c3ccccc3)c(O)c(O)cc2c(O)c1-c1c(C)cc2c(C(=O)NCC(C)c3ccccc3)c(O)c(O)cc2c1O (stereo unspecified) (library stock concentration (final ~1000-fold dilution): 10 mM)
NF-kB SEAP reporter activity: 0.803

COMPOUND: CCC(Nc1ncnc2[nH]cnc12)c1oc2ccccc2c(=O)c1-c1cccc(F)c1 (stereo unspecified) (library stock concentration (final ~1000-fold dilution): 10 mM)
NF-kB SEAP reporter activity: 0.443

COMPOUND: CCCCCCCCCCCCCCCC(=O)OC1C(SC)OC(C(NC(=O)C2CC(CCC)CN2C)C(C)Cl)C(O)C1O.Cl (stereo unspecified) (library stock concentration (final ~1000-fold dilution): 10 mM)
NF-kB SEAP reporter activity: 0.877

COMPOUND: CC(C)(C)C1NC(=O)OC2CCCC2OC/C=C/C(F)(F)c2nc3ccccc3nc2OC2CC(C(=O)NC3(C(=O)NS(=O)(=O)C4(C)CC4)CC3C(F)F)N(C2)C1=O (stereo unspecified) (library stock concentration (final ~1000-fold dilution): 10 mM)
NF-kB SEAP reporter activity: 0.986

COMPOUND: COc1cc2ncnc(Nc3ccc(O)c(Br)c3)c2cc1OC (library stock concentration (final ~1000-fold dilution): 10 mM)
NF-kB SEAP reporter activity: 0.685

COMPOUND: Cc1[nH]c(C=C2C(=O)Nc3ccc(F)cc32)c(C)c1C(=O)NCCN1CCCC1 (library stock concentration (final ~1000-fold dilution): 2 mM)
NF-kB SEAP reporter activity: 0.266

Now, please, on to the next compound.
Which NF-kB SEAP reporter activity is listed for CC(C)(OC1OC(CO)C(O)C(O)C1O)C1Cc2cc3ccc(=O)oc3cc2O1 (stereo unspecified) (library stock concentration (final ~1000-fold dilution): 10 mM) ?
1.27

* * *

Recorded NF-kB SEAP reporter activity values for a group of compounds are listed next.
tested on: RAW-Dual; experiment: NF-kB SEAP reporter activity, fold change vs agonist alone; cytotoxicity flag (confluency mask): cytotoxic (confluency <70% of control); higher = enhanced NF-kB activity; conditions: agonist: LPS (TLR4) 0.1 ug/mL
Whole data set: some 2,900 compounds, median “NF-kB SEAP reporter activity, fold change vs agonist alone” near 0.99, cut for the highest 2% near 2.6. This excerpt belongs to a sample that is enriched for the highest values.
Just the number, please.

Solved entries:
COMPOUND: CN(C)CC1CCn2cc(c3ccccc32)C2=C(C(=O)NC2=O)c2cn(c3ccccc23)CCO1.Cl (stereo not given) (library stock concentration (final ~1000-fold dilution): 10 mM)
NF-kB SEAP reporter activity: 3.03
--
COMPOUND: CC(O)C(=O)O.CN1CCN(c2ccc3nc(-c4c(N)c5c(F)cccc5[nH]c4=O)[nH]c3c2)CC1 (library stock concentration (final ~1000-fold dilution): 10 mM)
NF-kB SEAP reporter activity: 0.341
--
COMPOUND: CN1CCc2cc(Nc3ncc(C4CC4)c(NCCCNC(=O)C4CCC4)n3)ccc2C1 (library stock concentration (final ~1000-fold dilution): 10 mM)
NF-kB SEAP reporter activity: 0.23

I would be grateful if you could share the reported NF-kB SEAP reporter activity for CC(C)N(CCC(=O)c1ccc2ccccc2c1)Cc1ccccc1.Cl (library stock concentration (final ~1000-fold dilution): 10 mM) .
0.45

Look up NF-kB SEAP reporter activity for this compound: O=C1Nc2ccc(Cl)cc2C(C#CC2CC2)(C(F)(F)F)O1 (stereo not given) (library stock concentration (final ~1000-fold dilution): 10 mM)
0.632

* * *

system: RAW-Dual; test: NF-kB SEAP reporter activity, fold change vs agonist alone; cytotoxicity flag (confluency mask): not cytotoxic; higher = enhanced NF-kB activity; settings: agonist: Pam3CSK4 (TLR2/1) 0.1 ug/mL
The full ranking holds about 2,900 compounds; the median of “NF-kB SEAP reporter activity, fold change vs agonist alone” is about 0.99, and the highest 2% start at about 2.6. The sample holds the highest values, similar compounds and a random draw of the others, so the mix is not that of the screen.
Listing: NF-kB SEAP reporter activity of selected molecules
Form: value (number only, do not type unit).

Need NF-kB SEAP reporter activity, item CC(C)CC(NC(=O)C(CCc1ccccc1)NC(=O)CN1CCOCC1)C(=O)NC(Cc1ccccc1)C(=O)NC(CC(C)C)C(=O)C1(C)CO1 (stereo unspecified) (library stock concentration (final ~1000-fold dilution): 10 mM)
0.456

* * *

test system: RAW-Dual; assay: NF-kB SEAP reporter activity, fold change vs agonist alone; cytotoxicity flag (confluency mask): not cytotoxic; higher = enhanced NF-kB activity; details: agonist: Pam3CSK4 (TLR2/1) 0.1 ug/mL
The full ranking holds about 2,900 compounds; the median of “NF-kB SEAP reporter activity, fold change vs agonist alone” is about 0.99, and the highest 2% start at about 2.6. The full list was thinned out, with the highest values kept by preference.
Tag: true (1) if measured NF-kB SEAP reporter activity is not below 0.8, false (0) if it is.

Below are worked cases with known answers.
COMPOUND: C[C@H]1[C@@H](O)O[C@@H]2OC3(C)CC[C@H]4[C@H](C)CC[C@@H]1[C@@]24OO3 (library stock concentration (final ~1000-fold dilution): 10 mM)
SYSTEM: RAW-Dual
ASSIGNED_CLASS: true (1)
--
COMPOUND: c1ccc(C(c2ccccc2)N2CCN(Cc3ccc4c(c3)OCO4)CC2)cc1 (library stock concentration (final ~1000-fold dilution): 10 mM)
SYSTEM: RAW-Dual
ASSIGNED_CLASS: false (0)
--
COMPOUND: COc1ccc(CNC(=O)Nc2ncc([N+](=O)[O-])s2)cc1 (library stock concentration (final ~1000-fold dilution): 10 mM)
SYSTEM: RAW-Dual
ASSIGNED_CLASS: true (1)

Kindly determine if NF-kB SEAP reporter activity recorded for CN(C/C=C/C#CC(C)(C)C)Cc1cccc2ccccc12.Cl (library stock concentration (final ~1000-fold dilution): 10 mM) is above or exactly 0.8.
true (1)

API: above_or_equal(metric=NF-kB SEAP reporter activity, cutoff=0.8) for item CC(C(O)c1ccc(O)cc1)N1CCC(Cc2ccccc2)CC1.CC(C(O)c1ccc(O)cc1)N1CCC(Cc2ccccc2)CC1.O=C(O)C(O)C(O)C(=O)O (stereo unspecified) (library stock concentration (final ~1000-fold dilution): 10 mM)
true (1)

Entry source: the supplement of paper PMC10037445
